system_under_test: human α7 receptor (Homo sapiens, UniProt P36544)
Sequence (P36544 23-502): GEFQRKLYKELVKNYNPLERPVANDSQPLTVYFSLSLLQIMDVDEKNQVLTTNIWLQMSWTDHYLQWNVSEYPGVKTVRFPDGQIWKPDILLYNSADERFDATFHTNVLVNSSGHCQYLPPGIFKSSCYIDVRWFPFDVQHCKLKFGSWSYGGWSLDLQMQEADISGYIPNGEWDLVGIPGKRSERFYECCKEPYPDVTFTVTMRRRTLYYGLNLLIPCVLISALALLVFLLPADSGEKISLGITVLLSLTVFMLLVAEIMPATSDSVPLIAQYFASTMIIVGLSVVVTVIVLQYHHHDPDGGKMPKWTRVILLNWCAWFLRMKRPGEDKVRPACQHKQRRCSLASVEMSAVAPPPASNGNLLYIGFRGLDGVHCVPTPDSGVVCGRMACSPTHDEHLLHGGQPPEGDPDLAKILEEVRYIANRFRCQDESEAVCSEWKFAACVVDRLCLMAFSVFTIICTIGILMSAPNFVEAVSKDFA
test_name: α7 NNR flux assay (FDSS Ca assay, positive allosteric modulation of acetylcholine response)
stated_conditions: human α7 receptor stably expressed in rat GH4C1 cells; acetylcholine 20 μM; % modulation relative to PNU-120596 set to 100%
assay_metric: EC50 (µM)

smiles_code: COc1nccc(C)c1NC(=O)c1cc(C)nc2c1c(C)nn2-c1ccccc1
test_result: 5
//
smiles_code: COc1ccc(-n2nc(C)c3c(C(=O)Nc4c(C)ccnc4C)ccnc32)cc1
test_result: 6
//
smiles_code: COc1ccnc(C)c1NC(=O)c1cc(C)nc2c1c(C)nn2-c1ccccc1
test_result: 6.5

The origin of these recorded values is patent US20130005743A1.
